Values compiled from paper PMC6201879.

experiment: Pharmacokinetic profile in Sprague Dawley rats (IV and PO); type: in vivo; conditions: IV 1 mg/kg, Mean + SD (n = 3)
Answer each item with its documented AUC _%Extrap_obs (IV).

[in] What AUC _%Extrap_obs (IV) value was documented for this compound, CC(C)(C)c1ccc(O)c(C(=O)Nc2cc(C(=O)O)ccc2Cl)c1 [Compound 600494] ?
[out] 1.23 +/- 1.05%

[in] Recorded AUC _%Extrap_obs (IV) of CC(C)(C)c1cc(C(=O)Nc2ccc(C(=O)O)cc2Cl)c(O)c(C(C)(C)C)c1 [Compound 600453] , please.
[out] 0.50 +/-0.114%

[in] Data request, read-out AUC _%Extrap_obs (IV), for CC(C)(C)c1ccc(O)c(C(=O)Nc2ccc(C(=O)O)cc2C(F)(F)F)c1 [Compound 500873]
[out] 0.249 +/- 0.151%

[in] Dear colleague, I am looking for the recorded AUC _%Extrap_obs (IV) of the following compound: CC(C)(C)c1ccc(O)c(C(=O)Nc2ccc(C(=O)O)cc2Cl)c1 [Compound 500200]
[out] 0.13 +/- 0.016%
